protocol.details: Pharmacokinetic evaluation of experimental animals after oral administration
Assay type: in vivo, Beagle dogs
test.context: dog, blood; beagle dogs, oral via capsules, 10 mg/kg; read-out: Cmax
property: Cmax (ng/mL)
Please state the figure in ng/mL; there is no need to write the unit.

Requested field: Cmax. Item: `COC(=O)C1=C(CN2CCN3C(=O)N(c4ccc(CCC(=O)O)cc4F)C[C@@H]3C2)NC(c2nccs2)=N[C@H]1c1ccc(F)cc1Cl`
3720

---

The following molecules are listed with their measured Purity (%) values.
protocol.details: Stability test (high temperature, high humidity and light tests)
Format: physicochemical
test.context: Light (4500±500 lx, UV light≥0.7 w/m^2), 5 days
Procedure: High temperature test: An appropriate amount of the test product was added into a flat weighing bottle and spread into a thin layer with thickness ≤5 mm. The bottle was placed at 60° C. or 40° C. for 10 days. Samples were taken at the 5th and 10th days to check the appearance, related substances and purity. High humidity test: An appropriate amount of the test product was added into a flat weighing bottle and spread into a thin layer with thickness 5 mm. […]
Your answer should be a plain number; it is taken to be in %.

# lookup: Purity (%) of `CN(C)C=O.COC(=O)C1=C(CN2CCN3C(=O)N(c4ccc(CCC(=O)O)cc4F)C[C@@H]3C2)NC(c2nccs2)=N[C@H]1c1ccc(F)cc1Cl`
98.82

Give the measured Purity (%) of `COC(=O)C1=C(CN2CCN3C(=O)N(c4ccc(CCC(=O)O)cc4F)C[C@@H]3C2)N=C(c2nccs2)N[C@H]1c1ccc(F)cc1Cl.Cl` .
99.34

Quick one: Purity (%) of `COC(=O)C1=C(CN2CCN3C(=O)N(c4ccc(CCC(=O)O)cc4F)C[C@@H]3C2)N=C(c2nccs2)N[C@H]1c1ccc(F)cc1Cl.CS(=O)(=O)O` ?
99.37

Look up Purity (%): COC(=O)C1=C(CN2CCN3C(=O)N(c4ccc(CCC(=O)O)cc4F)C[C@@H]3C2)N=C(c2nccs2)N[C@H]1c1ccc(F)cc1Cl.O=P(O)(O)O [Phosphate crystal form C of the compound having Formula (Ia)]
99.30

Data request, read-out Purity (%), for `Br.COC(=O)C1=C(CN2CCN3C(=O)N(c4ccc(CCC(=O)O)cc4F)C[C@@H]3C2)N=C(c2nccs2)N[C@H]1c1ccc(F)cc1Cl`
98.80

---

protocol.details: Pharmacokinetic evaluation of experimental animals after oral administration
Type: in vivo, Beagle dogs
test.context: dog, in vivo
property: absorption in the body / in animals (in words)

[
  {
    "molecule": "COC(=O)C1=C(CN2CCN3C(=O)N(c4ccc(CCC(=O)O)cc4F)C[C@@H]3C2)N=C(c2nccs2)N[C@H]1c1ccc(F)cc1Cl.Cl",
    "result": "better absorbed"
  },
  {
    "molecule": "COC(=O)C1=C(CN2CCN3C(=O)N(c4ccc(CCC(=O)O)cc4F)C[C@@H]3C2)N=C(c2nccs2)N[C@H]1c1ccc(F)cc1Cl.O=S(=O)(O)O [Sulfate crystal form B of the compound having Formula (Ia)]",
    "result": "better absorbed"
  },
  {
    "molecule": "COC(=O)C1=C(CN2CCN3C(=O)N(c4ccc(CCC(=O)O)cc4F)C[C@@H]3C2)NC(c2nccs2)=N[C@H]1c1ccc(F)cc1Cl.N=C(N)NCCC[C@H](N)C(=O)O",
    "result": "better absorbed"
  }
]
